Measured values drawn from the NIST ThermoML archive (doi:10.1021/je050200w) for this set.

# Applied Conditions: 293.15 K; 101 kPa; Liquid
Reported Endpoint: viscosity (mPa·s)

Molecule: CCCCCCCCCO [nonan-1-ol]
Reported Endpoint: viscosity
Reported: 11.63
//
Molecule: CCCCCCCCO [octan-1-ol]
Reported Endpoint: viscosity
Reported: 8.944
//
Molecule: CCCCCCCCCCO [decan-1-ol]
Reported Endpoint: viscosity
Reported: 14.39
//
Molecule: CCCCCCCCCCCO [1-undecanol]
Reported Endpoint: viscosity
Reported: 17.28

---

# Applied Conditions: 298.15 K; 101 kPa; Liquid
Examples of molecules with documented viscosity follow.

Mol: CCCCCCCCO
Result Unit: mPa·s
viscosity: 7.498

Mol: CCCCCCCCCO
Result Unit: mPa·s
viscosity: 9.519

Mol: CCCCCCCCCCO
Result Unit: mPa·s
viscosity: 11.74

Mol: CCCCCCCCCCCO
Result Unit: mPa·s
viscosity: 13.72

---

# Applied Conditions: 303.15 K; 101 kPa; Liquid
Catalogue of viscosity values

Mol: CCCCCCCCCO
Result Unit: mPa·s
viscosity: 7.806
--
Mol: CCCCCCCCO
Result Unit: mPa·s
viscosity: 6.273
--
Mol: CCCCCCCCCCCO
Result Unit: mPa·s
viscosity: 11.52
--
Mol: CCCCCCCCCCO
Result Unit: mPa·s
viscosity: 9.561

---

# Applied Conditions: 313.15 K; 101 kPa; Liquid
Quick reference for mass density among some compounds

Mol: CCCCCCCCO
mass density / kg/m3: 811.4
//
Mol: CCCCCCCCCCO
mass density / kg/m3: 816.3
//
Mol: CCCCCCCCCCCO
mass density / kg/m3: 818.6
//
Mol: CCCCCCCCCO
mass density / kg/m3: 814.3

---

# Applied Conditions: 303.15 K; 101 kPa; Liquid

Mol: CCCCCCCCCCO
mass density, kg/m3: 823
--
Mol: CCCCCCCCO
mass density, kg/m3: 818.4
--
Mol: CCCCCCCCCCCO
mass density, kg/m3: 825.4
--
Mol: CCCCCCCCCO
mass density, kg/m3: 821.3

---

# Applied Conditions: 308.15 K; 101 kPa; Liquid
Numbers after ± are expanded uncertainties.
Reported Endpoint: viscosity

Mol: CCCCCCCCCO
Reported: 6.604 ± 0.21 mPa·s
//
Mol: CCCCCCCCO
Reported: 5.342 ± 0.17 mPa·s
//
Mol: CCCCCCCCCCO
Reported: 8 ± 0.24 mPa·s
//
Mol: CCCCCCCCCCCO
Reported: 9.35 ± 0.28 mPa·s

---

# Applied Conditions: 298.15 K; 101 kPa; Liquid
Numbers after ± are expanded uncertainties.

Mol: CCCCCCCCO
mass density: 821.9 ± 0.6 kg/m3
--
Mol: CCCCCCCCCCO
mass density: 826.5 ± 0.6 kg/m3
--
Mol: CCCCCCCCCO
mass density: 824.7 ± 0.9 kg/m3
--
Mol: CCCCCCCCCCCO
mass density: 828.8 ± 0.9 kg/m3

---

# Applied Conditions: 293.15 K; 101 kPa; Liquid
Reported Endpoint: mass density (kg/m3)

Mol: CCCCCCCCCO
Reported: 828.1
//
Mol: CCCCCCCCCCO
Reported: 829.9
//
Mol: CCCCCCCCO
Reported: 825.2
//
Mol: CCCCCCCCCCCO
Reported: 832.2
